The measurements presented in this section are drawn from patent US9120756B2.

Record form. Attribute: inhibition at 5 µM. Fill in for each entry.
Target: rat-species vanilloid receptor 1 (VR1/TRPV1) (Rattus norvegicus (Rat), UniProt O35433)
Sequence (O35433 whole entry): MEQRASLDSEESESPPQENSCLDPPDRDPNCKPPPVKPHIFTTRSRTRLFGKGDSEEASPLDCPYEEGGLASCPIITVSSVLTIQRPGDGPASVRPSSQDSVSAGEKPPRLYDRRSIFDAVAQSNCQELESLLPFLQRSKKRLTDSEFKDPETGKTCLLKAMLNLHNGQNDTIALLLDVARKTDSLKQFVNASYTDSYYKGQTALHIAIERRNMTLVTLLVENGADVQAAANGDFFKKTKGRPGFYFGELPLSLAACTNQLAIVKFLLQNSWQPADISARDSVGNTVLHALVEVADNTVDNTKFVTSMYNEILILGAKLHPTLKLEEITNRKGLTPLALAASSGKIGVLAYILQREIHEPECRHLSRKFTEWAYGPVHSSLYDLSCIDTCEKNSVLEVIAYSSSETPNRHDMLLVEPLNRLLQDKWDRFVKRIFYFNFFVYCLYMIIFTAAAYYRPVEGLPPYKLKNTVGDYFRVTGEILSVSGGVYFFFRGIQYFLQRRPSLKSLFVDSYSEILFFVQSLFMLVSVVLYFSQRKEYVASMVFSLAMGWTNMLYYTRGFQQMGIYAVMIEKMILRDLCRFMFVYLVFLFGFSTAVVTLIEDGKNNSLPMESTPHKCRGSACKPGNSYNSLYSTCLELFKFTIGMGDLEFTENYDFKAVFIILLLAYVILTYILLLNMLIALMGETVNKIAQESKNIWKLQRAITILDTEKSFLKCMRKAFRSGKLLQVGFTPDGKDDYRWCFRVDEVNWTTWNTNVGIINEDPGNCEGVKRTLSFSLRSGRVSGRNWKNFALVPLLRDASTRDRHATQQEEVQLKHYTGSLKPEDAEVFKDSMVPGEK
Assay: FLIPR Ca2+ influx assay on rat dorsal root ganglia cells, capsaicin stimulus (method I)
Format: cell-based
Conditions: read-out: Ki (rat) Cap: inhibition (as a percentage) @ 5 μM, capsaicin, inhibition determined at 5 μM
One number for each entry, in %.

Could you share which inhibition at 5 µM value was measured for C[C@H](C(=O)NCc1cc(C(C)(C)C)n[nH]1)c1ccc(NS(C)(=O)=O)c(F)c1 [Example 2] ?
25

# iterate: CC(C(=O)NCc1cc(C(C)(C)C)nn1C)c1ccc(NS(C)(=O)=O)c(F)c1 (stereo not shown) [Example 3]
14

# iterate: CC(C(=O)NCc1cc(C(C)(C)C)n[nH]1)c1ccc(NS(C)(=O)=O)c(F)c1 (stereo not shown) [Example 1]
25

Others:
Could you share which inhibition at 5 µM value was measured for C[C@H](C(=O)NCc1cc(C(C)(C)C)nn1C)c1ccc(NS(C)(=O)=O)c(F)c1 [Example 4] ?
20
